Tested on: PC3 (human prostate adenocarcinoma)
Assay Procedure: MTT cytotoxicity assay, PC3
Assay type: cell-based
Experimental Context: ratio of cytotoxicity L929 / PC3
Measurement Type: Selectivity index PC3
One number for each entry.

Compound	Measurement Type	Observed Result
O=C1C(=O)c2ccccc2C2=C1CC(Cn1cc(CNC3=CC(=O)c4c(I)cccc4C3=O)nn1)O2 (stereo not shown) [Compound 20a]	Selectivity index PC3	0.6
COc1cccc2c1C(=O)C(NCc1cn(C3C4=C(OC3(C)C)c3ccccc3C(=O)C4=O)nn1)=CC2=O (stereo not shown) [Compound 19c]	Selectivity index PC3	2.6
CC1(C)OC2=C(C(=O)C(=O)c3ccccc32)C1n1cc(CNC2=CC(=O)c3cccc(OCc4ccccc4)c3C2=O)nn1 (stereo not shown) [Compound 19d]	Selectivity index PC3	1.9
[N-]=[N+]=NCC1CC2=C(O1)c1ccccc1C(=O)C2=O (stereo not shown) [Compound 7]	Selectivity index PC3	1.5
CC1(C)OC2=C(C(=O)C(=O)c3ccccc32)C1N=[N+]=[N-] (stereo not shown) [Compound 4]	Selectivity index PC3	0.5

Provide the reported Selectivity index PC3 of each entry below, same order.
1. O=C1C(=O)c2ccccc2C2=C1CC(Cn1cc(CNC3=CC(=O)c4c(O)cccc4C3=O)nn1)O2 (stereo not shown) [Compound 20b]
2. CC1(C)OC2=C(C(=O)C(=O)c3ccccc32)C1n1cc(CNC2=CC(=O)c3c(O)cccc3C2=O)nn1 (stereo not shown) [Compound 19b]
3. COc1cccc2c1C(=O)C(NCc1cn(CC3CC4=C(OC3(C)C)c3ccccc3C(=O)C4=O)nn1)=CC2=O (stereo not shown) [Compound 21c]

Return:
[2.7, 1.9, 1.1]

Provide the reported Selectivity index PC3 of each entry below, same order.
1. CC1(C)OC2=C(CC1Cn1cc(CNC3=CC(=O)c4cccc(OCc5ccccc5)c4C3=O)nn1)C(=O)C(=O)c1ccccc12 (stereo not shown) [Compound 21d]
2. C#CCNC1=CC(=O)c2c(O)cccc2C1=O [Compound 18b]
3. CC1(C)OC2=C(CC1Cn1cc(CNC3=CC(=O)c4c(O)cccc4C3=O)nn1)C(=O)C(=O)c1ccccc12 (stereo not shown) [Compound 21b]
4. CC1(C)OC2=C(CC1Cn1cc(CNC3=CC(=O)c4cc5ccccc5cc4C3=O)nn1)C(=O)C(=O)c1ccccc12 (stereo not shown) [Compound 21e]

Return:
[0.5, 0.2, 0.5, 0.6]

Lab note: O=C1C(=O)c2ccccc2C2=C1CC(Cn1cc(CNC3=CC(=O)c4cc5ccccc5cc4C3=O)nn1)O2 (stereo not shown) [Compound 20e] gave Selectivity index PC3 of 0.9

* * *

Tested on: SNB-19 (human astrocytoma)
Assay Procedure: MTT cytotoxicity assay, SNB-19
Type: cell-based
Experimental Context: ratio of cytotoxicity L929 / SNB-19
Answer each item with its documented Selectivity index SNB-19.
Numbers only.

Some compounds with known Selectivity index SNB-19 results, for comparison:
Compound	Selectivity index SNB-19
CC1(C)OC2=C(CC1Cn1cc(CNC3=CC(=O)c4cc5ccccc5cc4C3=O)nn1)C(=O)C(=O)c1ccccc12 (stereo not shown) [Compound 21e]	1.3
CC1(C)OC2=C(CC1Cn1cc(CNC3=CC(=O)c4c(O)cccc4C3=O)nn1)C(=O)C(=O)c1ccccc12 (stereo not shown) [Compound 21b]	0.5
CC1(C)OC2=C(CC1Cn1cc(CNC3=CC(=O)c4cccc(OCc5ccccc5)c4C3=O)nn1)C(=O)C(=O)c1ccccc12 (stereo not shown) [Compound 21d]	1.4
COc1cccc2c1C(=O)C(NCc1cn(CC3CC4=C(OC3(C)C)c3ccccc3C(=O)C4=O)nn1)=CC2=O (stereo not shown) [Compound 21c]	1.1
O=C1C(=O)c2ccccc2C2=C1CC(Cn1cc(CNC3=CC(=O)c4c(O)cccc4C3=O)nn1)O2 (stereo not shown) [Compound 20b]	2.9

Provide the reported Selectivity index SNB-19 of each entry below, same order.
1. O=C1C(=O)c2ccccc2C2=C1CC(Cn1cc(CNC3=CC(=O)c4cc5ccccc5cc4C3=O)nn1)O2 (stereo not shown) [Compound 20e]
2. CC1(C)OC2=C(C(=O)C(=O)c3ccccc32)C1n1cc(CNC2=CC(=O)c3cccc(OCc4ccccc4)c3C2=O)nn1 (stereo not shown) [Compound 19d]

Return:
1: 2.0; 2: 3.0

* * *

Assay Procedure: MTT cytotoxicity assay, L929 control line
Assay type: cell-based, mouse
Experimental Context: mouse, L929 fibroblast cells (non-tumoral control line), 72 h exposure, read-out: Cytotoxic activity IC50 (95% CI) L929
Answer each item with its documented IC50 at 72 h.

Some compounds with known IC50 at 72 h results, for comparison:
Compound	IC50 at 72 h
C#CCNC1=CC(=O)c2cc3ccccc3cc2C1=O [Compound 18e]	> 100000 nM
C#CCNC1=CC(=O)c2c(I)cccc2C1=O [Compound 18a]	> 100000 nM
[N-]=[N+]=NCC1CC2=C(O1)c1ccccc1C(=O)C2=O (stereo not shown) [Compound 7]	3460 nM
CC1(C)OC2=C(CC1Cn1cc(CNC3=CC(=O)c4cc5ccccc5cc4C3=O)nn1)C(=O)C(=O)c1ccccc12 (stereo not shown) [Compound 21e]	1710 nM
O=C1C(=O)c2ccccc2C2=C1CC(Cn1cc(CNC3=CC(=O)c4cccc(OCc5ccccc5)c4C3=O)nn1)O2 (stereo not shown) [Compound 20d]	9430 nM

Provide the reported IC50 at 72 h of each entry below, same order.
1. CC1(C)OC2=C(C(=O)C(=O)c3ccccc32)C1n1cc(CNC2=CC(=O)c3c(I)cccc3C2=O)nn1 (stereo not shown) [Compound 19a]
2. CC1(C)OC2=C(C(=O)C(=O)c3ccccc32)C1n1cc(CNC2=CC(=O)c3cccc(OCc4ccccc4)c3C2=O)nn1 (stereo not shown) [Compound 19d]

Return:
1: 1210 nM; 2: 2290 nM

* * *

Answer each item with its documented Selectivity index PC3.
Test system: PC3 (human prostate adenocarcinoma)
Assay Procedure: MTT cytotoxicity assay, PC3
Type: cell-based
Experimental Context: ratio of cytotoxicity L929 / PC3
Give bare numbers.

Compound	Selectivity index PC3
CC1(C)OC2=C(C(=O)C(=O)c3ccccc32)C1n1cc(CNC2=CC(=O)c3c(I)cccc3C2=O)nn1 (stereo not shown) [Compound 19a]	0.3
O=C1C(=O)c2ccccc2C2=C1CC(Cn1cc(CNC3=CC(=O)c4cccc(OCc5ccccc5)c4C3=O)nn1)O2 (stereo not shown) [Compound 20d]	0.7
CC1(C)OC2=C(C(=O)C(=O)c3ccccc32)C1n1cc(CNC2=CC(=O)c3cc4ccccc4cc3C2=O)nn1 (stereo not shown) [Compound 19e]	1.4

// below: Selectivity index PC3 requested for another compound
Lab note: CC1(C)OC2=C(CC1Cn1cc(CNC3=CC(=O)c4c(I)cccc4C3=O)nn1)C(=O)C(=O)c1ccccc12 (stereo not shown) [Compound 21a] gave Selectivity index PC3 of 0.3

* * *

System: HL60 (human pro-myelocytic leukaemia)
Assay Procedure: MTT cytotoxicity assay, HL60
Format: cell-based
Experimental Context: MTT, 72 h exposure, three independent experiments; read-out: Cytotoxic activity IC50 (95% CI) HL60
Measurement Type: IC50 (nM)
Answers are plain numbers, in nM.

Some molecules with known IC50 results, for comparison:
Molecule	Target Desc	IC50, nM
O=C1C(=O)c2ccccc2C2=C1CC(Cn1cc(CNC3=CC(=O)c4cc5ccccc5cc4C3=O)nn1)O2 (stereo not drawn) [Compound 20e]	HL60 (human pro-myelocytic leukaemia)	1570
CC1(C)OC2=C(CC1Cn1cc(CNC3=CC(=O)c4cc5ccccc5cc4C3=O)nn1)C(=O)C(=O)c1ccccc12 (stereo not drawn) [Compound 21e]	HL60 (human pro-myelocytic leukaemia)	260

// below: IC50 requested for another molecule
Tested on HL60 (human pro-myelocytic leukaemia): CC1(C)OC2=C(C(=O)C(=O)c3ccccc32)C1n1cc(CNC2=CC(=O)c3cccc(OCc4ccccc4)c3C2=O)nn1 (stereo not drawn) [Compound 19d] . Observed IC50: 340

* * *

Tested on: RAJI (human Burkitt’s lymphoma)
Assay Procedure: MTT cytotoxicity assay, RAJI
Type: cell-based
Experimental Context: MTT, 72 h exposure, three independent experiments; read-out: Cytotoxic activity IC50 (95% CI) RAJI
Description: In this study, the IC50 was obtained in micromolar concentrations, using the colourimetric MTT (3-(4,5-dimethylthiazol-2-yl)-2,5-diphenyl tetrazolium bromide)) assay, and doxorubicin was used as the positive control. […] The activity against the non-tumoural murine fibroblast cell line L929 was also evaluated in order to study the cytotoxicity behaviour of each compound and to understand their respective relative selectivity. […]
Measurement Type: pIC50
One number for each entry, as −log10 of the molar value.

Lab note: COc1cccc2c1C(=O)C(NCc1cn(C3C4=C(OC3(C)C)c3ccccc3C(=O)C4=O)nn1)=CC2=O (stereo not shown) [Compound 19c] gave pIC50 of 6.03

* * *

Test system: HL60 (human pro-myelocytic leukaemia)
Assay Procedure: MTT cytotoxicity assay, HL60
Assay type: cell-based
Experimental Context: Homo sapiens, HL-60, 72 h, MTT, 72 h exposure, three independent experiments; read-out: Cytotoxic activity IC50 (95% CI) HL60
Measurement Type: pIC50
Numbers only, as −log10 of the molar value.

Some compounds with known pIC50 results, for comparison:
Compound	pIC50
COc1cccc2c1C(=O)C(NCc1cn(CC3CC4=C(O3)c3ccccc3C(=O)C4=O)nn1)=CC2=O (stereo not drawn) [Compound 20c]	4.42
CC1(C)OC2=C(CC1Cn1cc(CNC3=CC(=O)c4cc5ccccc5cc4C3=O)nn1)C(=O)C(=O)c1ccccc12 (stereo not drawn) [Compound 21e]	6.30
COc1cccc2c1C(=O)C(NCc1cn(C3C4=C(OC3(C)C)c3ccccc3C(=O)C4=O)nn1)=CC2=O (stereo not drawn) [Compound 19c]	5.97
CC1(C)OC2=C(CC1Cn1cc(CNC3=CC(=O)c4c(I)cccc4C3=O)nn1)C(=O)C(=O)c1ccccc12 (stereo not drawn) [Compound 21a]	5.99

Provide the reported pIC50 of each entry below, same order.
1. O=C1C(=O)c2ccccc2C2=C1CC(Cn1cc(CNC3=CC(=O)c4cccc(OCc5ccccc5)c4C3=O)nn1)O2 (stereo not drawn) [Compound 20d]
2. CC1(C)OC2=C(CC1Cn1cc(CNC3=CC(=O)c4c(O)cccc4C3=O)nn1)C(=O)C(=O)c1ccccc12 (stereo not drawn) [Compound 21b]
3. CC1(C)OC2=C(C(=O)C(=O)c3ccccc32)C1n1cc(CNC2=CC(=O)c3c(O)cccc3C2=O)nn1 (stereo not drawn) [Compound 19b]
4. CC1(C)OC2=C(C(=O)C(=O)c3ccccc32)C1n1cc(CNC2=CC(=O)c3cc4ccccc4cc3C2=O)nn1 (stereo not drawn) [Compound 19e]
5. CC1(C)OC2=C(C(=O)C(=O)c3ccccc32)C1n1cc(CNC2=CC(=O)c3c(I)cccc3C2=O)nn1 (stereo not drawn) [Compound 19a]

Return:
1. 5.43
2. 5.65
3. 6.00
4. 6.07
5. 6.36

Provide the reported pIC50 of each entry below, same order.
1. CC1(C)OC2=C(CC1Cn1cc(CNC3=CC(=O)c4cccc(OCc5ccccc5)c4C3=O)nn1)C(=O)C(=O)c1ccccc12 (stereo not drawn) [Compound 21d]
2. C#CCNC1=CC(=O)c2c(I)cccc2C1=O [Compound 18a]
3. O=C1C(=O)c2ccccc2C2=C1CC(Cn1cc(CNC3=CC(=O)c4c(O)cccc4C3=O)nn1)O2 (stereo not drawn) [Compound 20b]

Return:
6.05
4.42
5.30

Lab note: O=C1C(=O)c2ccccc2C2=C1CC(Cn1cc(CNC3=CC(=O)c4cc5ccccc5cc4C3=O)nn1)O2 (stereo not drawn) [Compound 20e] gave pIC50 of 5.80
